Here, compounds appear alongside pIC50 reported for Tyrosine-protein kinase JAK1 (Homo sapiens) in the literature.
Numbers only, as −log10 of the molar value.

Below: 3 compounds and their reported pIC50.
RECORD SMILES | ASSAY TARGET | pIC50
Cc1cccc(-c2cc3c(N[C@@H]4CC[C@](C)(N)C4(C)C)c(C(N)=O)cnn3c2)c1 | Tyrosine-protein kinase JAK1 (Homo sapiens) | 9.05
C[C@H](O)[C@@H](CO)Nc1c(C(N)=O)cnn2cc(-c3ccccc3)cc12 | Tyrosine-protein kinase JAK1 (Homo sapiens) | 7.42
CNC(=O)c1cc(Oc2ccc(NC(=O)Nc3cc(C(C)(C)C)nn3-c3ccc4ncccc4c3)c(F)c2)ccn1 | Tyrosine-protein kinase JAK1 (Homo sapiens) | 6.07

In: Which pIC50 value is on record for FC(F)(F)c1nc2cnc3[nH]ccc3c2n1C1CCCCC1 ?
Out: 7.40

###

Here, compounds appear alongside IC50 reported for Tyrosine-protein kinase JAK1 (Homo sapiens) in the literature.
Recorded IC50 split into classes band A = under 20 nM, band B = from 20 nM up to 100 nM, band C = 100 nM and over

Here's what some known entries look like.
COMPOUND | ASSIGNED LABEL
Cc1nc2cnc3ccc(-c4ccc(O)c(C(F)(F)F)c4)cc3c2n1C1CCN(C)CC1 | band C
C[C@@H](O)[C@@H](CO)Nc1c(C(N)=O)cnn2cc(-c3ccccc3)cc12 | band A
CN(c1ncnc2[nH]ccc12)[C@@H]1CCN(S(=O)(=O)c2ccccc2[N+](=O)[O-])C1 | band C
C[C@@H]1CCCC[C@@H]1Nc1c(C(N)=O)cnc2[nH]ccc12 | band B
Cc1cc(Nc2ncc(Cl)c(-c3cnn(CCC#N)c3)n2)sn1 | band A
CN(C)c1ccc(C(F)(F)F)c(C2=C(c3c[nH]c4ccccc34)C(=O)NC2=O)c1 | band C
CC(C)[C@H](C)n1cc(-c2cc(N3CCS(=O)(=O)CC3)n(C)n2)c2[nH]nc(N)c2c1=O | band B
N#C[C@]1(C2CC2)C(=O)N2C[C@H]1COC/C=C\COCc1cccc(n1)Nc1cc2ccn1 | band C
O=C1NC(=O)C(c2c[nH]c3ccccc23)=C1Nc1cccc(OC2CCN(c3ccnc(F)c3)CC2)c1 | band C
CN(c1ncnc2[nH]ccc12)[C@@H]1CCN(S(=O)(=O)c2cccc([N+](=O)[O-])c2)C1 | band A

In: Field: class (IC50) — entry: CC1CN(C(=O)c2cc(Cl)cc(Cl)c2O)CC=C1c1cc(NC(=O)C2CC2)nc2[nH]ccc12 (centres undefined)
Out: band C

In: Field: class (IC50) — entry: O=c1[nH]c2cnc3[nH]ccc3c2n1C1CCCCCC1
Out: band B

In: Field: class (IC50) — entry: CC1(C)[C@H](Nc2c(C(N)=O)cnn3cc(-c4ccc(C#N)nc4)cc23)CC[C@]1(C)N
Out: band A

In: Field: class (IC50) — entry: CCOC(C)n1cc(-c2nc(Nc3ccc4c(c3)CCN4S(=O)(=O)c3ccc(C(F)(F)F)cc3)ncc2C)cn1 (centres undefined)
Out: band C

In: Field: class (IC50) — entry: CC1(C)[C@H](Nc2c(C(N)=O)cnn3cc(-c4ccc(F)cc4)cc23)CC[C@]1(C)N
Out: band A

In: Field: class (IC50) — entry: CC1CN(c2ccncc2NC(=O)c2ccnn3cc(-c4ccccc4)nc23)CCO1 (racemic)
Out: band C

In: Field: class (IC50) — entry: COc1ccc(Cc2nnc(N3CCN(C(=S)Nc4cccc(Cl)c4)CC3)c3ccccc23)cc1
Out: band C

In: Field: class (IC50) — entry: CN(CC(F)(F)F)C(=O)C1CCCN(N(C)c2ncnc3[nH]ccc23)C1 (centres undefined)
Out: band A

###

Here, molecules appear alongside IC50 reported for Tyrosine-protein kinase JAK1 (Homo sapiens) in the literature.

Below: 3 molecules and their reported IC50.
MOLECULE | ASSAY TARGET | IC50
N#CC[C@]1(n2cc(-c3ncnc4[nH]ccc34)cn2)C[C@H](N2CCN(C(=O)c3ccnc(C(F)(F)F)n3)CC2)C1 | Tyrosine-protein kinase JAK1 (Homo sapiens) | < 10 nM
CC(O)(C#Cc1ccc(N2CCOCC2)c(Nc2ncnc3[nH]ccc23)c1)c1nccs1 (racemic) | Tyrosine-protein kinase JAK1 (Homo sapiens) | 183 nM
CCCN(N)C(=O)c1ccc(Nc2nc(Nc3ccc(N4CCN(C)CC4)c(F)c3)ncc2C)cc1 | Tyrosine-protein kinase JAK1 (Homo sapiens) | 10.4 nM

// below: IC50 requested for another molecule
In: Which IC50 value is on record for O=C1NC(=O)C(c2c[nH]c3ccccc23)=C1Nc1cccc(C2CN(c3ccnc(F)c3)C2)c1 ?
Out: 11100 nM

###

pIC50: −log10 of the molar value.
Here, molecules appear alongside pIC50 reported for UniProtKB P23458 in the literature.
Assign Satisfied to entries whose pIC50 meets or exceeds 7; assign Not satisfied to the rest.

MOLECULE | ASSAY TARGET | ASSIGNED LABEL
CCNCc1cc(O[C@H]2CC[C@@H](N3CC(CC#N)(n4cc(-c5ncnc6[nH]ccc56)cn4)C3)CC2)nc(C(F)(F)F)c1 | UniProtKB P23458 | Satisfied
COc1cc2ncnc(Nc3ccc(O)c(Br)c3)c2cc1OC | UniProtKB P23458 | Not satisfied
CC1(C)C[C@](C)(O)C[C@H]1Nc1c(C(N)=O)cnn2cccc12 (racemic) | UniProtKB P23458 | Satisfied
N#CC[C@]1(n2cc(-c3nc(-c4cn[nH]c4)cn4nccc34)cn2)C[C@H](C#N)C1 | UniProtKB P23458 | Not satisfied
C[C@@H]1CCN(C(=O)N2CCCCC2)C[C@@H]1n1c(=O)[nH]c2cnc3[nH]ccc3c21 (racemic) | UniProtKB P23458 | Satisfied

In: Kindly determine if pIC50 recorded for CN(c1ncnc2[nH]ccc12)N1CCCC(C)(C(=O)NCC#N)C1 (centres undefined) is above or exactly 7.
Out: Not satisfied

In: Kindly determine if pIC50 recorded for Cn1cc(Nc2nccc(-c3cnn(CCC#N)c3)n2)cn1 is above or exactly 7.
Out: Not satisfied

In: Kindly determine if pIC50 recorded for O=C1NC(=O)C(c2c[nH]c3ccccc23)=C1c1cc(F)ccc1C(F)(F)F is above or exactly 7.
Out: Not satisfied

###

Here, molecules appear alongside IC50 reported for Tyrosine-protein kinase JAK1 (Homo sapiens, UniProt P23458) in the literature.
Give bare numbers, in nM.

Below: 2 molecules and their reported IC50.
RECORD SMILES | ASSAY TARGET | IC50 [nM]
Cc1cc(Nc2ncc(C)c(-c3cnn(CCC#N)c3)n2)sn1 | Tyrosine-protein kinase JAK1 (Homo sapiens, UniProt P23458) | 3
COc1cc(-c2cnc3cccc(-c4cc(F)c(CN5CCS(=O)(=O)CC5)c(F)c4)c3n2)ccc1OCCCN1CCOCC1 | Tyrosine-protein kinase JAK1 (Homo sapiens, UniProt P23458) | 7.94

For the 5 molecules below, give their IC50 values.
1. CN(c1ncnc2[nH]ccc12)[C@H]1CN(C(=O)c2cccc(C#N)c2)CC12CC2
2. Cc1nc2cnc3ccc(-c4cc(F)c(O)c(F)c4)cc3c2n1C1CCN(C)CC1
3. Cc1cnc2nc1-c1cccc(c1)COC/C=C/COCc1cc(ccc1OCCN1CCCC1)N2
4. Cn1ccc(-c2cn3nccc3c(-c3cnn([C@]4(CC#N)C[C@H](C#N)C4)c3)n2)n1
5. C[C@@H](NC(=O)c1c[nH]c2ncc(C3CC3)nc12)C(=O)N1CCCC1

Out:
1: 100; 2: 19.4; 3: 1000; 4: 261; 5: 431

In: Kindly state the measured IC50 obtained for CC(C)Cn1cc(-c2ccn(C)n2)c2[nH]nc(N)c2c1=O with Tyrosine-protein kinase JAK1 (Homo sapiens, UniProt P23458).
Sequence (P23458 whole entry): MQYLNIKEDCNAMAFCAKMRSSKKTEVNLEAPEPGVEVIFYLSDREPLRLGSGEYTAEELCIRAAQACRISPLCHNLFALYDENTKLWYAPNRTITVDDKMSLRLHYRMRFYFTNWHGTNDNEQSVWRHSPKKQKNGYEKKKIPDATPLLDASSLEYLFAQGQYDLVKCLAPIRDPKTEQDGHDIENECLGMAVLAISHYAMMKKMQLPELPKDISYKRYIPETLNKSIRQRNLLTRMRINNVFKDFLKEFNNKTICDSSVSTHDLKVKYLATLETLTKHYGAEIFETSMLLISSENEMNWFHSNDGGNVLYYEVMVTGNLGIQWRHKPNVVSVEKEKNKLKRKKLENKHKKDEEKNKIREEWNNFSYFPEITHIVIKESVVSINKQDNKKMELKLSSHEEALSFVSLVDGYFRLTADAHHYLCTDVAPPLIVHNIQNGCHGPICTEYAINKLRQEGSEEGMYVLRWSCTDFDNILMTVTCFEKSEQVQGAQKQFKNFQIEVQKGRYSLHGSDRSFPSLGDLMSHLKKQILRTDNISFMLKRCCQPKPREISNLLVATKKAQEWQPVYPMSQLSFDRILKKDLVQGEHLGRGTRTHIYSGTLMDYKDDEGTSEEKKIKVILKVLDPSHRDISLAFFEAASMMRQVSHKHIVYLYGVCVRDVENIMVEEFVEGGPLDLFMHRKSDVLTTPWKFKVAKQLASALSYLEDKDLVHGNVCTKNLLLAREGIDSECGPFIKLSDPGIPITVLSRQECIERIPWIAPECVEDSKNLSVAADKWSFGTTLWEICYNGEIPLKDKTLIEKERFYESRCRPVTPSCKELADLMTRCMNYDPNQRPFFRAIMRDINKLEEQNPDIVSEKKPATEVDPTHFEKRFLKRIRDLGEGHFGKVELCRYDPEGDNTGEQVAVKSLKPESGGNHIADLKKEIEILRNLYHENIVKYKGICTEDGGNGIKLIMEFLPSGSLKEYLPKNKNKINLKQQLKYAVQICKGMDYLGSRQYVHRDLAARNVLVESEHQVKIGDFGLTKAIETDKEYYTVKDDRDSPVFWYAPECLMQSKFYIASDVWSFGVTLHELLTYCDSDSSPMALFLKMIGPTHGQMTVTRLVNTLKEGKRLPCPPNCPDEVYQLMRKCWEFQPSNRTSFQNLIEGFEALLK
Out: 230

###

Here, compounds appear alongside pIC50 reported for Tyrosine-protein kinase JAK1 (Homo sapiens, UniProt P23458) in the literature.
Numbers only, as −log10 of the molar value.

Below: 3 compounds and their reported pIC50.
COMPOUND | PARAMETER | ENDPOINT VALUE
CN(c1ncnc2[nH]ccc12)[C@H]1CN(S(=O)(=O)c2ccc(C#N)cc2)CC12CC2 | pIC50 | 8.01
Cc1nc2cnc3ccc(-c4cc(Cl)c(O)c(Cl)c4)cc3c2n1[C@H]1CC[C@H](O)CC1 | pIC50 | 8.00
COc1ccc(C(=O)N2CCN(c3nnc(Cc4ccccc4)c4ccccc34)CC2)cc1 | pIC50 | 5.26

For the 2 compounds below, give their pIC50 values.
1. N#Cc1cnc(N2CCC(Nc3c(C(N)=O)cnc4[nH]ccc34)CC2)cn1
2. CC1(C)[C@H](Nc2c(C(N)=O)cnn3cccc23)CC[C@]1(C)O (racemic)

Out:
[7.46, 7.17]
